Biological target: Neprilysin (Rattus norvegicus)
Sequence (P07861 whole entry): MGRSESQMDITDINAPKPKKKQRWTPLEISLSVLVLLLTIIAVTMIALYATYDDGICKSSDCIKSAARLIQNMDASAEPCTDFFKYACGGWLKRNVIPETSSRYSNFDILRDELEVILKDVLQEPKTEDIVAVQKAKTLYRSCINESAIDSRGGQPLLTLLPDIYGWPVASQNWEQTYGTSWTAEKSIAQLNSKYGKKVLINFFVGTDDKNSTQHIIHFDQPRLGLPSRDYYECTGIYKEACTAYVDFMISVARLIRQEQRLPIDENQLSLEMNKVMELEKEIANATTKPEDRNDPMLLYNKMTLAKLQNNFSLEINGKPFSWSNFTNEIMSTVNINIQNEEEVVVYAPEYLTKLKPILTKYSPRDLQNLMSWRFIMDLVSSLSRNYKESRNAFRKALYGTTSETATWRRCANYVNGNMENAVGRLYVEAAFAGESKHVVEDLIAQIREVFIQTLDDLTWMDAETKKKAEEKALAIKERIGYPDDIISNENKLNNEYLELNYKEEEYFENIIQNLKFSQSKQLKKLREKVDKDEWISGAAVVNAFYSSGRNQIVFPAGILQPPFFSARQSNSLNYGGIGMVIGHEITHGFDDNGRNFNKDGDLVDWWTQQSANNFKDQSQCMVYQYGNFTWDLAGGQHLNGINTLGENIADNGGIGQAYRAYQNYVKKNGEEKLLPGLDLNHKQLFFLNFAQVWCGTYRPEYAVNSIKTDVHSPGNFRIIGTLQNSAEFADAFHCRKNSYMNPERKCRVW
Assay: In vitro inhibition of rat neutral endopeptidase by using GAAP as substrate
pIC50: −log10 of the molar value.
pIC50 overview

{"MOLECULE": "CO[C@H](C[C@@H](Cc1ccc(-c2ccccc2)cc1)C(=O)NCCC(=O)O)C(=O)O (stereo in doubt; 8h)", "QUALIFIER_SIGN": "<", "pIC50": 6.00}
{"MOLECULE": "Cc1ccc([C@H](C[C@@H](Cc2ccc(-c3ccccc3)cc2)C(=O)NCCC(=O)O)C(=O)O)cc1", "QUALIFIER_SIGN": "=", "pIC50": 7.27}
{"MOLECULE": "C[C@H](C[C@@H](Cc1ccc(-c2ccccc2)cc1)C(=O)NCCC(=O)O)C(=O)O", "QUALIFIER_SIGN": "=", "pIC50": 7.39}
{"MOLECULE": "O=C(O)CCNC(=O)C(Cc1ccc(-n2cccc2)cc1)CC(Cc1ccc(-n2cccc2)cc1)C(=O)O (stereo not given)", "QUALIFIER_SIGN": "=", "pIC50": 7.44}
{"MOLECULE": "COc1ccc(C[C@H](C[C@@H](Cc2ccc(-c3ccccc3)cc2)C(=O)NCCC(=O)O)C(=O)O)cc1OC", "QUALIFIER_SIGN": "=", "pIC50": 7.27}
{"MOLECULE": "C[C@H](C[C@@H](Cc1ccc(-c2ccccc2)cc1)NC(=O)CC(=O)O)C(=O)O", "QUALIFIER_SIGN": "=", "pIC50": 7.04}
{"MOLECULE": "O=C(O)CCNC(=O)C(Cc1ccc(Oc2ccccc2)cc1)CC(Cc1ccc(Oc2ccccc2)cc1)C(=O)O (stereo not given)", "QUALIFIER_SIGN": "=", "pIC50": 6.69}
{"MOLECULE": "O=C(O)CCNC(=O)C(Cc1ccccc1)CC(Cc1ccccc1)C(=O)O (stereo not given)", "QUALIFIER_SIGN": "=", "pIC50": 5.92}
{"MOLECULE": "O=C(O)CCNC(=O)[C@H](Cc1ccc(-c2ccccc2)cc1)C[C@@H](Cc1ccc(-c2nccs2)cc1)C(=O)O", "QUALIFIER_SIGN": "=", "pIC50": 7.72}
{"MOLECULE": "O=C(O)CCNC(=O)[C@@H](CCC(=O)O)Cc1ccc(-c2ccccc2)cc1", "QUALIFIER_SIGN": "=", "pIC50": 6.81}
{"MOLECULE": "COc1ccc(C[C@H](C[C@@H](Cc2ccc(-c3ccccc3)cc2)C(=O)NCC(O)C(=O)O)C(=O)O)cc1OC (stereo not given in full)", "QUALIFIER_SIGN": "=", "pIC50": 7.96}
{"MOLECULE": "COCC[C@H](C[C@@H](Cc1ccc(-c2ccccc2)cc1)C(=O)NCCC(=O)O)C(=O)O", "QUALIFIER_SIGN": "=", "pIC50": 7.34}
{"MOLECULE": "CO[C@H](C[C@@H](Cc1ccc(-c2ccccc2)cc1)C(=O)NCCC(=O)O)C(=O)O (stereo in doubt; 8g)", "QUALIFIER_SIGN": "=", "pIC50": 7.38}
{"MOLECULE": "O=C(O)CCNC(=O)C(Cc1ccc(-c2ccccc2)cc1)CC(Cc1ccc(-c2ccccc2)cc1)C(=O)O (stereo not given)", "QUALIFIER_SIGN": "=", "pIC50": 7.31}
{"MOLECULE": "O=C(O)CCNC(=O)[C@H](Cc1ccc(-c2ccccc2)cc1)C[C@@H](Oc1ccccc1)C(=O)O (stereo in doubt; 8f)", "QUALIFIER_SIGN": "<", "pIC50": 6.00}
{"MOLECULE": "O=C(O)CCNC(=O)[C@H](Cc1ccc(-c2ccccc2)cc1)C[C@@H](Oc1ccccc1)C(=O)O (stereo in doubt; 8e)", "QUALIFIER_SIGN": "=", "pIC50": 7.36}
{"MOLECULE": "O=C(O)CCNC(=O)C(Cc1ccc(-c2nccs2)cc1)CC(Cc1ccc(-c2nccs2)cc1)C(=O)O (stereo not given)", "QUALIFIER_SIGN": "<", "pIC50": 6.00}
{"MOLECULE": "CO[C@H](C[C@@H](Cc1ccc(-c2ccccc2)cc1)NC(=O)CCCC(=O)O)C(=O)O", "QUALIFIER_SIGN": "=", "pIC50": 7.31}
{"MOLECULE": "O=C(O)CCC(=O)N[C@H](Cc1ccccc1)C[C@@H](Cc1ccccc1)C(=O)O", "QUALIFIER_SIGN": "=", "pIC50": 5.40}
{"MOLECULE": "CCCC[C@H](C[C@@H](Cc1ccc(-c2ccccc2)cc1)C(=O)NCCC(=O)O)C(=O)O", "QUALIFIER_SIGN": "=", "pIC50": 7.18}
{"MOLECULE": "O=C(O)C1CCC(NC(=O)C(Cc2ccc(-n3cccc3)cc2)CC(Cc2ccc(-n3cccc3)cc2)C(=O)O)CC1 (stereo not given)", "QUALIFIER_SIGN": "=", "pIC50": 6.29}
{"MOLECULE": "C[C@H](C[C@@H](Cc1ccc(-c2ccccc2)cc1)NC(=O)CCCCC(=O)O)C(=O)O", "QUALIFIER_SIGN": "=", "pIC50": 6.49}
{"MOLECULE": "CCCC[C@H](C[C@@H](Cc1ccc(-c2ccccc2)cc1)C(=O)NCC(O)C(=O)O)C(=O)O (stereo not given in full)", "QUALIFIER_SIGN": "=", "pIC50": 7.68}
{"MOLECULE": "C[C@H](C[C@@H](Cc1ccc(-c2ccccc2)cc1)NC(=O)CCCC(=O)O)C(=O)O", "QUALIFIER_SIGN": "=", "pIC50": 7.05}
{"MOLECULE": "CC(C)c1ccc(CC(CC(Cc2ccc(C(C)C)cc2)C(=O)NCCC(=O)O)C(=O)O)cc1 (stereo not given)", "QUALIFIER_SIGN": "=", "pIC50": 6.31}
